These measurements were taken from PubChem BioAssay AID1918998.

Test system: 521955-158-R2-J5-PDC complex spheroid growth
Assay: Anticancer human tumor 521955-158-R2-J5-PDC patient-derived pancreatic carcinoma cell line growth inhibition [AhR]
Details: second compound 0.1 µM; first compound 0.0316 µM; hits give low values
Mark Criterion met only for viability, T/C values smaller than 90%; exact matches and larger values are Criterion not met.

molecule="CC[C@@]1(O)C(=O)OCc2c1cc1n(c2=O)Cc2cc3c(CN(C)C)c(O)ccc3nc2-1 + Cc1cncc(-c2nc(NCCc3c[nH]c4ccccc34)c3ncn(C(C)C)c3n2)c1" assigned_class="Criterion met"
molecule="O=C(C=Cc1cccc(S(=O)(=O)Nc2ccccc2)c1)NO + Cc1cncc(-c2nc(NCCc3c[nH]c4ccccc34)c3ncn(C(C)C)c3n2)c1" assigned_class="Criterion not met"
molecule="COc1cccc2c1C(=O)c1c(O)c3c(c(O)c1C2=O)CC(O)(C(=O)CO)CC3OC1CC(N)C(O)C(C)O1 (stereo not drawn) + Cc1ccccc1N=Nc1ccc(NC(=O)c2ccnn2C)c(C)c1" assigned_class="Criterion met"
molecule="CC1(C)CCC(CN2CCN(c3ccc(C(=O)NS(=O)(=O)c4ccc(NCC5CCOCC5)c([N+](=O)[O-])c4)c(Oc4cnc5[nH]ccc5c4)c3)CC2)=C(c2ccc(Cl)cc2)C1 + Cc1cncc(-c2nc(NCCc3c[nH]c4ccccc34)c3ncn(C(C)C)c3n2)c1" assigned_class="Criterion not met"
molecule="Nc1ccccc1NC(=O)c1ccc(CNC(=O)OCc2cccnc2)cc1 + Cc1cncc(-c2nc(NCCc3c[nH]c4ccccc34)c3ncn(C(C)C)c3n2)c1" assigned_class="Criterion not met"
molecule="NS(=O)(=O)OCC1CC(n2ccc3c(NC4CCc5ccccc54)ncnc32)CC1O (stereo not drawn) + CC(CO)NC(=O)c1cc(-c2ccc(Cl)cc2)nn(-c2cnn(C)c2)c1=O" assigned_class="Criterion met"
molecule="Cn1ncnc1C1c2n[nH]c(=O)c3cc(F)cc(c23)NC1c1ccc(F)cc1 (stereo not drawn) + Cc1cncc(-c2nc(NCCc3c[nH]c4ccccc34)c3ncn(C(C)C)c3n2)c1" assigned_class="Criterion not met"
molecule="CC(C)c1c(-c2ccccc2)nc2c(C#N)c[nH]n2c1=O + Cc1ccccc1N=Nc1ccc(NC(=O)c2ccnn2C)c(C)c1" assigned_class="Criterion not met"
molecule="COc1cc(C2c3cc4c(cc3C(OC3OC5COC(C)OC5C(O)C3O)C3COC(=O)C23)OCO4)cc(OC)c1O (stereo not drawn) + CC(CO)NC(=O)c1cc(-c2ccc(Cl)cc2)nn(-c2cnn(C)c2)c1=O" assigned_class="Criterion met"
molecule="Nc1ccccc1NC(=O)c1ccc(CNC(=O)OCc2cccnc2)cc1 + Cc1ccccc1N=Nc1ccc(NC(=O)c2ccnn2C)c(C)c1" assigned_class="Criterion not met"
molecule="COc1ccc([C@@H](O)c2cc(-c3ncnc4cc(N5CCOCC5)ccc34)c(F)cc2Cl)nn1 + Cc1ccccc1N=Nc1ccc(NC(=O)c2ccnn2C)c(C)c1" assigned_class="Criterion not met"
molecule="CC1COCCN1c1cc(-c2ccnn2C)c2ccnc(-c3ccn[nH]3)c2n1 (stereo not drawn) + Cc1cncc(-c2nc(NCCc3c[nH]c4ccccc34)c3ncn(C(C)C)c3n2)c1" assigned_class="Criterion not met"
molecule="COc1cc(Nc2ncc3c(n2)-c2ccc(Cl)cc2C(c2c(F)cccc2OC)=NC3)ccc1C(=O)O + CC(CO)NC(=O)c1cc(-c2ccc(Cl)cc2)nn(-c2cnn(C)c2)c1=O" assigned_class="Criterion not met"
molecule="COc1cccc2c1C(=O)c1c(O)c3c(c(O)c1C2=O)CC(O)(C(=O)CO)CC3OC1CC(N)C(O)C(C)O1 (stereo not drawn) + CC(CO)NC(=O)c1cc(-c2ccc(Cl)cc2)nn(-c2cnn(C)c2)c1=O" assigned_class="Criterion met"
molecule="COc1cccc2c1C(=O)c1c(O)c3c(c(O)c1C2=O)CC(O)(C(=O)CO)CC3OC1CC(N)C(O)C(C)O1 (stereo not drawn) + Cc1cncc(-c2nc(NCCc3c[nH]c4ccccc34)c3ncn(C(C)C)c3n2)c1" assigned_class="Criterion met"
molecule="Nc1ncn(C2CC(O)C(CO)O2)c(=O)n1 (stereo not drawn) + CC(CO)NC(=O)c1cc(-c2ccc(Cl)cc2)nn(-c2cnn(C)c2)c1=O" assigned_class="Criterion not met"
molecule="CC1COCCN1c1cc(C2(S(C)(=N)=O)CC2)nc(-c2ccnc3[nH]ccc23)n1 (stereo not drawn) + CC(CO)NC(=O)c1cc(-c2ccc(Cl)cc2)nn(-c2cnn(C)c2)c1=O" assigned_class="Criterion not met"

---

Test system: 521955-158-R2-J5-PDC complex spheroid growth
Assay: Anticancer human tumor 521955-158-R2-J5-PDC cell line growth inhibition [AhR];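 also: spheroids mix tumor cells with HUVEC endothelium and human MSC stroma; luminescence taken as viability surrogate after a week of drug exposure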
Details: second compound 3.16 µM; first compound 0.0316 µM; hits give low values
viability, T/C by entry:
ASSAY_READOUT: viability, T/C

compound="CC1COCCN1c1cc(-c2ccnn2C)c2ccnc(-c3ccn[nH]3)c2n1 (stereo unspecified) + CC(CO)NC(=O)c1cc(-c2ccc(Cl)cc2)nn(-c2cnn(C)c2)c1=O" value_reported=94.4%
compound="O=C(C=Cc1cccc(S(=O)(=O)Nc2ccccc2)c1)NO + Cc1ccccc1N=Nc1ccc(NC(=O)c2ccnn2C)c(C)c1" value_reported=105%
compound="O=C(c1cc(Cc2n[nH]c(=O)c3ccccc23)ccc1F)N1CCN(C(=O)C2CC2)CC1 + Cc1cncc(-c2nc(NCCc3c[nH]c4ccccc34)c3ncn(C(C)C)c3n2)c1" value_reported=142%
compound="CC[C@@]1(O)C(=O)OCc2c1cc1n(c2=O)Cc2cc3c(CN(C)C)c(O)ccc3nc2-1 + Cc1ccccc1N=Nc1ccc(NC(=O)c2ccnn2C)c(C)c1" value_reported=41.1%
compound="Nc1ccn(C2OC(CO)C(O)C2(F)F)c(=O)n1 (stereo unspecified) + Cc1cncc(-c2nc(NCCc3c[nH]c4ccccc34)c3ncn(C(C)C)c3n2)c1" value_reported=116%
compound="CC1COCCN1c1cc(C2(S(C)(=N)=O)CC2)nc(-c2ccnc3[nH]ccc23)n1 (stereo unspecified) + Cc1cncc(-c2nc(NCCc3c[nH]c4ccccc34)c3ncn(C(C)C)c3n2)c1" value_reported=139%

---

viability, T/C by entry:
Tested on: 521955-158-R2-J5-PDC complex spheroid growth
Assay: Anticancer human tumor 521955-158-R2-J5-PDC cell line growth inhibition [AhR];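 also: spheroids mix tumor cells with HUVEC endothelium and human MSC stroma; luminescence taken as viability surrogate after a week of drug exposure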
Conditions: second compound 3.16 µM; first compound 0.003 µM; hits give low values
ASSAY_READOUT: viability, T/C (%)

molecule="CC(C)CC(NC(=O)C(Cc1ccccc1)NC(=O)c1cnccn1)B(O)O (stereo not drawn) + Cc1ccccc1N=Nc1ccc(NC(=O)c2ccnn2C)c(C)c1" u=% value_reported=119
molecule="CCc1c2c(nc3ccc(O)cc13)-c1cc3c(c(=O)n1C2)COC(=O)[C@]3(O)CC + CC(CO)NC(=O)c1cc(-c2ccc(Cl)cc2)nn(-c2cnn(C)c2)c1=O" u=% value_reported=29.3
molecule="Nc1ncn(C2CC(O)C(CO)S2)c(=O)n1 (stereo not drawn) + Cc1ccccc1N=Nc1ccc(NC(=O)c2ccnn2C)c(C)c1" u=% value_reported=145

---

Tested on: 521955-158-R2-J5-PDC complex spheroid growth
Experiment: Anticancer human tumor 521955-158-R2-J5-PDC cell line growth inhibition [AhR];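 also: spheroids mix tumor cells with HUVEC endothelium and human MSC stroma; luminescence taken as viability surrogate after a week of drug exposure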
Settings: second compound 0.1 µM; first compound 0.00316 µM; hits give low values
Text: Multicellular complex tumor spheroid response to aryl hydrocarbon receptor antagonists in combination with a variety of drugs and investigational agents in selected tumor cell lines […] Compounds. […] If the clinical Cmax for an agent had not been determined, the highest concentration tested was 10 microM (Table 1). […]
viability, T/C by entry:
ASSAY_READOUT: viability, T/C

compound="CC1COCCN1c1cc(-c2ccnn2C)c2ccnc(-c3ccn[nH]3)c2n1 (stereo unspecified) + Cc1cncc(-c2nc(NCCc3c[nH]c4ccccc34)c3ncn(C(C)C)c3n2)c1" assay_readout="viability, T/C" value_reported=112%
compound="CC1COCCN1c1cc(-c2ccnn2C)c2ccnc(-c3ccn[nH]3)c2n1 (stereo unspecified) + CC(CO)NC(=O)c1cc(-c2ccc(Cl)cc2)nn(-c2cnn(C)c2)c1=O" assay_readout="viability, T/C" value_reported=91.6%
compound="Cn1ncnc1C1c2n[nH]c(=O)c3cc(F)cc(c23)NC1c1ccc(F)cc1 (stereo unspecified) + Cc1ccccc1N=Nc1ccc(NC(=O)c2ccnn2C)c(C)c1" assay_readout="viability, T/C" value_reported=108%
compound="Nc1ncn(C2CC(O)C(CO)O2)c(=O)n1 (stereo unspecified) + Cc1ccccc1N=Nc1ccc(NC(=O)c2ccnn2C)c(C)c1" assay_readout="viability, T/C" value_reported=79%
compound="CC[C@@]1(O)C(=O)OCc2c1cc1n(c2=O)Cc2cc3c(CN(C)C)c(O)ccc3nc2-1 + Cc1ccccc1N=Nc1ccc(NC(=O)c2ccnn2C)c(C)c1" assay_readout="viability, T/C" value_reported=89.5%
compound="Nc1ncn(C2CC(O)C(CO)O2)c(=O)n1 (stereo unspecified) + Cc1cncc(-c2nc(NCCc3c[nH]c4ccccc34)c3ncn(C(C)C)c3n2)c1" assay_readout="viability, T/C" value_reported=92.4%
